B1: TPR 5TU (parent)
chain: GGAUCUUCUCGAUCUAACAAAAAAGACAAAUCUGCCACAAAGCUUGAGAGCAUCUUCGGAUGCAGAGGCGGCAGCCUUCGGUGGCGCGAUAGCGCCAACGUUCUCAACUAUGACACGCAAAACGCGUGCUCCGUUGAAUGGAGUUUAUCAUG

# Variants of: B1
# assay-protocol: polymerase ribozyme fitness, log enrichment relative to wild type (log ratio); higher = more active; in vitro selection for triplet polymerase activity
This sample holds only a part of the variants without activity.
endpoint-label: polymerase ribozyme fitness (log ratio)

| mutation-spec | meas-value |
| --- | --- |
| G80U U109C G143C | -4.04 |
| A40G C63G C85U U145A | -2.16 |
| G11C A66U C96A C108G | ≤ -4.2 |
